# EXPERIMENT SUMMARY: AUC (0 to t) in Sprague-Dawley rat plasma at 1 mg/kg, iv measured after 24 hrs by UPLC analysis
# Type: ADME, organism-based
# Design: dose 1 mg/kg, time < 24 hr, route intravenous
EXPERIMENTAL READOUT: AUC(0-t) at 24 h (ng·h/mL)

>  <SAMPLE SMILES>
COc1cc2ncnc(Nc3ccc(F)c(Cl)c3)c2cc1OCCCN1CCOCC1

>  <EXPERIMENTAL READOUT>
AUC(0-t) at 24 h

>  <REPORTED MEASUREMENT>
491

$$$$
>  <SAMPLE SMILES>
NS(=O)(=O)c1cccc2c1C(=O)C=C(Nc1ccccc1N1CCNCC1)C2=O

>  <EXPERIMENTAL READOUT>
AUC(0-t) at 24 h

>  <REPORTED MEASUREMENT>
189

$$$$
